assay name: Analytical size exclusion chromatography (percent monomer)
Format: physicochemical
condition details: NEM-conjugated cysteine variants; SEC, Abs280 monomer region 5.5-6 minutes vs oligomer region 4-5.3 minutes
measure name: Percent monomer

Quick one: Percent monomer for K5C (conjugate, left off: small tags and cut ends) LPAPCNLVVSEVTEDSARLSWDDPWAFYESFLIQYQESEKVGEAIVLTVPGSERSYDLTGLKPGTEYTVSIYGVHNVYKDTNMRGLPLSAIFTT ?
100%

Queued: K62C: cysteine variant of P54AR4-83v2 (SEQ ID 208 and 246); NEM and VC-MMAF conjugates (conjugate, NEM or vcMMAF conjugate; EGFR binding FN3 domain, NEM and VC-MMAF conjugates) MLPAPKNLVVSEVTEDSARLSWDDPWAFYESFLIQYQESEKVGEAIVLTVPGSERSYDLTGLCPGTEYTVSIYGVHNVYKDTNMRGLPLSAIFTT
95%
